- System tested: Nicotinamide N-methyltransferase (Homo sapiens, UniProt P40261)
- Sequence (P40261 whole entry): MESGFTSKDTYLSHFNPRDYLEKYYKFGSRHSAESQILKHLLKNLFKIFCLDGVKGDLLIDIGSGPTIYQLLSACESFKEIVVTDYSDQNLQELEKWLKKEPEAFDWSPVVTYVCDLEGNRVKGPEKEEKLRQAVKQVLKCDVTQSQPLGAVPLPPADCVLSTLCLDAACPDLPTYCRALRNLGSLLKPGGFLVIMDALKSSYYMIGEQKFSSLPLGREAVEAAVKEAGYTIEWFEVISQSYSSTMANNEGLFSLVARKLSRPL
- Assay details: Inhibition of NNMT in human 786-O cell lysate using d4-nicotinamide as substrate preincubated for 1 hr followed by substrate and SAM addition measured after 15 to 30 mins by LC-MS analysis
pIC50: −log10 of the molar value.
A collection of compounds and their measured pIC50
Readout: pIC50

1) CC(C)CCN(C(=O)CCl)c1cc(C(=O)NCc2cccc([N+](=O)[O-])c2)cc(C(F)(F)F)c1 ... 6.74
2) O=C(Nc1cccnc1Cl)c1cc(N(CCCc2ccccc2)C(=O)CCl)cc(C(F)(F)F)c1 ... 4.77
3) CC(C)CCN(C(=O)CCl)c1cc(C(=O)Nc2cccnc2Cl)cc(C(F)(F)F)c1 ... 6.70
